Reported Calculated % Selectivity tPA values for a set of molecules
biological target: recombinant tissue plasminogen activator (Homo sapiens, UniProt P00750); assay: Tissue plasminogen activator assay (S-2288 substrate); type: biochemical; settings: [IC50 for Trypsin/IC50 for other enzyme]×100; lower = more trypsin selective
Sequence (P00750 36-562): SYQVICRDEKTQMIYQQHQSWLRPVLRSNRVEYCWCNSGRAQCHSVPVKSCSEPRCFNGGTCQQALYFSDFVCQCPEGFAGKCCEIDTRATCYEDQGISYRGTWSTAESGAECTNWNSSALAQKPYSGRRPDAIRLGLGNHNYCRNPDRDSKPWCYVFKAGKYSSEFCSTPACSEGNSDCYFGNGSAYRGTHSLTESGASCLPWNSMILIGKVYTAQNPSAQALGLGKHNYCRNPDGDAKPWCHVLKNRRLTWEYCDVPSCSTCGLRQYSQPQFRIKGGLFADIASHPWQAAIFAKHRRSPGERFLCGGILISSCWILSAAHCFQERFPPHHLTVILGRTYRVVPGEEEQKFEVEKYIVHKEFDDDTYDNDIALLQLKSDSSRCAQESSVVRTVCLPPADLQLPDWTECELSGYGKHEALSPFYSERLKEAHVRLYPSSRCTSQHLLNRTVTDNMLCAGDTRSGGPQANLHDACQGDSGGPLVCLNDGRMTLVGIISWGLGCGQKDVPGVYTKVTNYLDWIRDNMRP
Residues, ends and D or L forms follow the SMILES beside them. *: point of attachment. Boc = CC(C)(C)OC(=O)*
Please give a number only; it is taken to be in %.

| molecule | unit tag | Calculated % Selectivity tPA |
| --- | --- | --- |
| CC(C)(C)OC(=O)N[C@@H](CCC(=O)O)C(=O)N1CCC[C@H]1C(=O)N[C@H](C=O)CCCNC(=N)N [Compound 8] (Boc-Glu-Pro-Arg-aldehyde) | % | 0 |

## Input Return reported Calculated % Selectivity tPA; argument: CC(C)(C)OC(=O)N[C@@H](CC(=O)O)C(=O)N1CCC[C@H]1C(=O)N[C@H](C=O)CCCNC(=N)N [Compound 9] (Boc-Asp-Pro-Arg-aldehyde)
## Output 0
